The measurements presented in this section are drawn from patent US20250237662A1.

# target under test: humanized development candidate monoclonal antibody IgG4 (hIgG4)
# measurement notes: Gyrolab, mAb as capture, hIgG4 8 ng/ml, against the blank
property: S/B
Answer with the value's number alone.

Worked examples, 2 binders total:
binder | reported
rabbit anti-human IgG monoclonal antibody clone 2C5 (antibody, V domains shown) VH: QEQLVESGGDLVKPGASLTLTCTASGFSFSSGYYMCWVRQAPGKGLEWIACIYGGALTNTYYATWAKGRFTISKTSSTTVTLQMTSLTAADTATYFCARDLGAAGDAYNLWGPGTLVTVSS VL: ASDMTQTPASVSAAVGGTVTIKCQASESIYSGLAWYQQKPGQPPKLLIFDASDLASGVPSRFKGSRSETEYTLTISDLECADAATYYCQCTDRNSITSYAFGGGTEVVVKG | 3.2
rabbit anti-human IgG monoclonal antibody clone 16F5 (antibody, V domains shown) VH: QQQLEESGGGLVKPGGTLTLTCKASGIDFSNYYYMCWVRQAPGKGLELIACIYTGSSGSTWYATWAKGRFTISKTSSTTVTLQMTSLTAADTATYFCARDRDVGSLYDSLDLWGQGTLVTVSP VL: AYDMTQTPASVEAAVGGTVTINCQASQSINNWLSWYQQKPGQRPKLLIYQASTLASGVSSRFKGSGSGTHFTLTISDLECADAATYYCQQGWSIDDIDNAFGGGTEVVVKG | 4.7

IN: Bench note: what S/B did rabbit anti-human IgG monoclonal antibody clone 11G5 (antibody, V domains shown) VH: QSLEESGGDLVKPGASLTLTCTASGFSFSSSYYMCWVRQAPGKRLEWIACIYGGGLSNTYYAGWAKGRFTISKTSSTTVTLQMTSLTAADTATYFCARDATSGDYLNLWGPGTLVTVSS VL: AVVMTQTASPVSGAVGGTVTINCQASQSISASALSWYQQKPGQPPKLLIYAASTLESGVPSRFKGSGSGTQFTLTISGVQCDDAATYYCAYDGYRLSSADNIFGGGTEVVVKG show?
OUT: 2.7

IN: Bench note: what S/B did rabbit anti-human IgG monoclonal antibody clone 9E6 (antibody, V domains shown) VH: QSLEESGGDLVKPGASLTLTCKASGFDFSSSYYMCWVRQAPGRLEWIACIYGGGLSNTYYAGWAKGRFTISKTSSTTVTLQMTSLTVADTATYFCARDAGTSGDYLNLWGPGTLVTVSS VL: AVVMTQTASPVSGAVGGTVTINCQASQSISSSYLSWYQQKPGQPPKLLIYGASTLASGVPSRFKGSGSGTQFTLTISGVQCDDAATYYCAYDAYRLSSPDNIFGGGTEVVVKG show?
OUT: 3
